assay: Quantitative High-Throughput drug screen in 47 multiple myeloma cell lines against the NCATS MIPE library collection: ARD_JJKsccE7 cell viability assay (AID 1918929); details: ARD myeloma cell line viability, CellTiter-Glo, 48 h; series mostly up to 45.8 µM
Records with an inconclusive call do not appear. Calls of active or inactive are those of the source. The call rests on the fitted dose curve; in most records, active means well fitted cell-killing curve with a large enough effect; inconclusive means small, poorly fitted or top-dose-only effect, or effect the other way; inactive means no such curve, though single readings can be large or run the other way.
Select the matching outcome among active, inactive

Consider the following illustrative entries.
1. CNCC(O)c1ccc(O)cc1 (stereo not given); inactive
2. C[C@@H]1[C@@H](CC(C[C@H]2O[C@@H]3O[C@]4(C)CC[C@@H]5[C@H](C)CC[C@@H]([C@H]2C)[C@@]35OO4)C[S+](=O)([O-])c2ccc(COC(=O)N(C)C)cc2)O[C@@H]2O[C@]3(C)CC[C@H]4[C@H](C)CC[C@@H]1[C@@]24OO3 (stereo not given in full); active
3. C[C@@H]1O[C@@H](O[C@H]2C[C@@H](O)[C@]3(CO)[C@H]4[C@H](O)C[C@]5(C)[C@@H](C6=CC(=O)OC6)CC[C@]5(O)[C@@H]4CC[C@]3(O)C2)[C@H](O)[C@H](O)[C@H]1O; active
4. O=C1CC[C@@]2(O)[C@H]3Cc4ccc(O)c5c4[C@@]2(CCN3CC2CC2)[C@H]1O5; inactive

Q. Lab log entry: O=C(O)C(=O)c1cn(Cc2ccccc2)c2ccc(-c3ccc(OC(F)(F)F)cc3)cc12 — outcome as called in the assay?
A. inactive
